systemTested: Protoporphyrinogen oxidase, mitochondrial (Nicotiana tabacum, UniProt O24164)
Sequence (O24164 whole entry): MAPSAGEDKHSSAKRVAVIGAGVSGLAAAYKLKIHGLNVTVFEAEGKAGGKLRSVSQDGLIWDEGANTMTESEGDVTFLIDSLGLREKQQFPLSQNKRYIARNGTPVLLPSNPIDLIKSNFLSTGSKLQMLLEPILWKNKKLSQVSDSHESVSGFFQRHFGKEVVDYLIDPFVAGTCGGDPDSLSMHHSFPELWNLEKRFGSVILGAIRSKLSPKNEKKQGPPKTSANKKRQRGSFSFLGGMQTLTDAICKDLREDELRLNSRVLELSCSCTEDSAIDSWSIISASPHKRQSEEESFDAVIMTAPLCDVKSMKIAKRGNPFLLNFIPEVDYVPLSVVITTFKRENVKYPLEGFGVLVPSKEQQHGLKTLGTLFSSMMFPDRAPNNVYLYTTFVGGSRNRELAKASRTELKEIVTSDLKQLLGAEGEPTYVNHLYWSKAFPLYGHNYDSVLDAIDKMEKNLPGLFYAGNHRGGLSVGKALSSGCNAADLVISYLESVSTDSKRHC
property: Ki (nM)

smilesData	readoutUnit	experimentalValue
O=C(O)c1cc(Oc2ccc(C(F)(F)F)cc2Cl)ccc1[N+](=O)[O-]	nM	70

* * *

systemTested: UniProtKB P50336
Sequence (P50336 whole entry): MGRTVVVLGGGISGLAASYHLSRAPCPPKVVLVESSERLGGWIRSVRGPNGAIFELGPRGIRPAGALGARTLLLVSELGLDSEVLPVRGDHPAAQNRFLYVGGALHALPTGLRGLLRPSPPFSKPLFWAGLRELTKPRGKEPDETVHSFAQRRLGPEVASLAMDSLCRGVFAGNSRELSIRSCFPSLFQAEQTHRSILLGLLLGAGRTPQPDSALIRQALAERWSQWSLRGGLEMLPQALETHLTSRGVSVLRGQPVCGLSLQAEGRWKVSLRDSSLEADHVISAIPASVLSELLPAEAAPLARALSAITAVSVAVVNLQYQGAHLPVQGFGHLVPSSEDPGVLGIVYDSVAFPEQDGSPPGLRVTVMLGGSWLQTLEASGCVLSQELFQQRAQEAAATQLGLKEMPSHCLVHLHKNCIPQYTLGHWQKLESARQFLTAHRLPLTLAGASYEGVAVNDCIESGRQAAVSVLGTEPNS
protocol: Inhibition of human PPO by capillary electrophoresis method
Listing: log10 of Ki of selected molecules
property: log10 of Ki (log10 of the value in µM)

molecule	log10 of Ki
CCOC(=O)C(C)Sc1nc2cc(-n3nc(C(C)(C)C)sc3=O)c(Cl)cc2s1 (stereo not drawn)	1.08
CCOC(=O)CCSc1nc2cc(-n3nc(C(C)(C)C)sc3=O)c(Br)cc2s1	1.44
CC(C)Oc1cc(-n2nc(C(C)(C)C)oc2=O)c(Cl)cc1Cl [OXADIAZON]	0.47
CCOC(=O)CSc1nc2cc(-n3nc(C(C)(C)C)oc3=O)c(Cl)cc2s1	0.03
CCOC(=O)C(C)(C)Sc1nc2cc(-n3nc(C(C)(C)C)sc3=O)c(Br)cc2s1	1.64
CCOC(=O)CSc1nc2cc(-n3nc(C(C)(C)C)sc3=O)c(F)cc2s1	-0.47
CCOC(=O)C(C)(C)Sc1nc2cc(-n3nc(C(C)(C)C)sc3=O)c(Cl)cc2s1	1.54
CCOC(=O)C(C)Sc1nc2cc(-n3nc(C(C)(C)C)sc3=O)c(F)cc2s1 (stereo not drawn)	0.77
CCOC(=O)CSc1nc2cc(-n3nc(C(C)(C)C)sc3=O)c(Br)cc2s1	1.19
CCOC(=O)Sc1nc2cc(-n3nc(C(C)(C)C)oc3=O)c(F)cc2s1	-0.14
C#CCSc1nc2cc(-n3nc(C(C)(C)C)oc3=O)c(F)cc2s1	0.28
C#CCSc1nc2cc(-n3nc(C(C)(C)C)sc3=O)c(Cl)cc2s1	1.33
COC(=O)CSc1nc2cc(-n3nc(C(C)(C)C)sc3=O)c(F)cc2s1	0.48
CCOC(=O)C(C)(C)Sc1nc2cc(-n3nc(C(C)(C)C)oc3=O)c(Br)cc2s1	0.20
CCOC(=O)C(C)(C)Sc1nc2cc(-n3nc(C(C)(C)C)sc3=O)c(F)cc2s1	0.54
C#CCSc1nc2cc(-n3nc(C(C)(C)C)sc3=O)c(Br)cc2s1	1.32
CCOC(=O)Sc1nc2cc(-n3nc(C(C)(C)C)sc3=O)c(F)cc2s1	-1.40
CCOC(=O)CCCSc1nc2cc(-n3nc(C(C)(C)C)sc3=O)c(Br)cc2s1	2.39
CCOC(=O)C(C)Sc1nc2cc(-n3nc(C(C)(C)C)sc3=O)c(Br)cc2s1 (stereo not drawn)	2.24
CCOC(=O)CCCSc1nc2cc(-n3nc(C(C)(C)C)sc3=O)c(Cl)cc2s1	1.25
CCOC(=O)CCCSc1nc2cc(-n3nc(C(C)(C)C)oc3=O)c(F)cc2s1	-0.44
CC(C)OC(=O)CSc1nc2cc(-n3nc(C(C)(C)C)sc3=O)c(F)cc2s1	0.10
CCOC(=O)Sc1nc2cc(-n3nc(C(C)(C)C)sc3=O)c(Cl)cc2s1	-0.70
